Test system: KRAS patient-derived spheroids with HUVEC/MSC, viability;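 further: spheroids exposed to agents for seven days before readout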
PROTOCOL_DESCRIPTION: Anticancer human tumor 941728-121-R-J1-PDC patient-derived lung adenocarcinoma cell line growth inhibition [KRAS2]
MEASUREMENT_CONDITIONS: second compound 0.316 µM; first compound 0.1 µM; stronger effect = lower value
Provide the recorded viability, T/C for the entries that follow.
Numeric only. Scale: %

The recorded viability, T/C for Cn1ncnc1[C@H]1c2n[nH]c(=O)c3cc(F)cc(c23)N[C@@H]1c1ccc(F)cc1 + C=CC(=O)N1CCN(c2nc(OCC3CCCN3C)nc3c2CCN(c2cccc4cccc(C)c24)C3)CC1CC#N is 17.1

The recorded viability, T/C for CN(C)C/C=C/C(=O)Nc1cc2c(Nc3ccc(F)c(Cl)c3)ncnc2cc1O[C@H]1CCOC1 + C=CC(=O)N1CCN(c2nc(OCC3CCCN3C)nc3c2CCN(c2cccc4cccc(C)c24)C3)CC1CC#N is 18.3

The recorded viability, T/C for Cn1ncnc1[C@H]1c2n[nH]c(=O)c3cc(F)cc(c23)N[C@@H]1c1ccc(F)cc1 + CNCc1ccccc1-c1csc(C(C)Nc2nc(C)nc3cc(OC)c(OC)cc23)c1 is 27.4

The recorded viability, T/C for COc1cc(Nc2ncc3c(n2)-c2ccc(Cl)cc2C(c2c(F)cccc2OC)=NC3)ccc1C(=O)O + C=CC(=O)N1CCN(c2nc(OCC3CCCN3C)nc3c2CCN(c2cccc4cccc(C)c24)C3)CC1CC#N is 26.1

The recorded viability, T/C for COc1cc2nccc(Oc3ccc(NC(=O)C4(C(=O)Nc5ccc(F)cc5)CC4)cc3)c2cc1OC + CNCc1ccccc1-c1csc(C(C)Nc2nc(C)nc3cc(OC)c(OC)cc23)c1 is 34.5

The recorded viability, T/C for CCN1CCN(Cc2ccc(Nc3ncc(F)c(-c4cc(F)c5nc(C)n(C(C)C)c5c4)n3)nc2)CC1 + C=CC(=O)N1CCN(c2nc(OCC3CCCN3C)nc3c2CCN(c2cccc4cccc(C)c24)C3)CC1CC#N is 20.2

The recorded viability, T/C for CC(=O)OC12COC1CC(O)C1(C)C(=O)C(O)C3=C(C)C(OC(=O)C(O)C(NC(=O)OC(C)(C)C)c4ccccc4)CC(O)(C(OC(=O)c4ccccc4)C21)C3(C)C (stereo not given) + C=CC(=O)N1CCN(c2nc(=O)n(-c3c(C)ccnc3C(C)C)c3nc(-c4c(O)cccc4F)c(F)cc23)C(C)C1 is 17.4

The recorded viability, T/C for CC1OCC2(CCN(c3cnc(Sc4ccnc(N)c4Cl)c(N)n3)CC2)C1N (stereo not given) + C=CC(=O)N1CCN(c2nc(=O)n(-c3c(C)ccnc3C(C)C)c3nc(-c4c(O)cccc4F)c(F)cc23)C(C)C1 is 23

The recorded viability, T/C for COC(=O)c1ccc2c(C(=Nc3ccc(N(C)C(=O)CN4CCN(C)CC4)cc3)c3ccccc3)c(O)[nH]c2c1 + CC1OCC2(CCN(c3cnc(Sc4ccnc(N)c4Cl)c(N)n3)CC2)C1N is 32.1

The recorded viability, T/C for CC1OCC2(CCN(c3cnc(Sc4ccnc(N)c4Cl)c(N)n3)CC2)C1N (stereo not given) + CNCc1ccccc1-c1csc(C(C)Nc2nc(C)nc3cc(OC)c(OC)cc23)c1 is 34.7

The recorded viability, T/C for O=C(c1cc(Cc2n[nH]c(=O)c3ccccc23)ccc1F)N1CCN(C(=O)C2CC2)CC1 + COc1cc2nc(C)nc(NC(C)c3cc(N)cc(C(F)(F)F)c3)c2cc1OC1CCOC1 is 57.4

The recorded viability, T/C for CCNC(=O)CC1N=C(c2ccc(Cl)cc2)c2cc(OC)ccc2-n2c(C)nnc21 (stereo not given) + C=CC(=O)N1CCN(c2nc(=O)n(-c3c(C)ccnc3C(C)C)c3nc(-c4c(O)cccc4F)c(F)cc23)C(C)C1 is 23.8

The recorded viability, T/C for CC1(C)CCC(CN2CCN(c3ccc(C(=O)NS(=O)(=O)c4ccc(NCC5CCOCC5)c([N+](=O)[O-])c4)c(Oc4cnc5[nH]ccc5c4)c3)CC2)=C(c2ccc(Cl)cc2)C1 + COc1cc2nc(C)nc(NC(C)c3cc(N)cc(C(F)(F)F)c3)c2cc1OC1CCOC1 is 33

The recorded viability, T/C for CC1COCCN1c1cc(-c2ccnn2C)c2ccnc(-c3ccn[nH]3)c2n1 (stereo not given) + C=CC(=O)N1CCN(c2nc(OCC3CCCN3C)nc3c2CCN(c2cccc4cccc(C)c24)C3)CC1CC#N is 25.9

The recorded viability, T/C for Cn1nccc1Nc1nccc(-c2cc3c(s2)C(C)(C)N(CCN2CCOCC2)C3=O)n1 + C=CC(=O)N1CCN(c2nc(OCC3CCCN3C)nc3c2CCN(c2cccc4cccc(C)c24)C3)CC1CC#N is 24.2

The recorded viability, T/C for CCNC(=O)CC1N=C(c2ccc(Cl)cc2)c2cc(OC)ccc2-n2c(C)nnc21 (stereo not given) + COc1cc2nc(C)nc(NC(C)c3cc(N)cc(C(F)(F)F)c3)c2cc1OC1CCOC1 is 42.6

The recorded viability, T/C for CC1COCCN1c1cc(-c2ccnn2C)c2ccnc(-c3ccn[nH]3)c2n1 (stereo not given) + CC1OCC2(CCN(c3cnc(Sc4ccnc(N)c4Cl)c(N)n3)CC2)C1N is 25.3

The recorded viability, T/C for O=C(c1cc(Cc2n[nH]c(=O)c3ccccc23)ccc1F)N1CCN(C(=O)C2CC2)CC1 + C=CC(=O)N1CCN(c2nc(=O)n(-c3c(C)ccnc3C(C)C)c3nc(-c4c(O)cccc4F)c(F)cc23)C(C)C1 is 33.6

The recorded viability, T/C for CC(C)n1nc(-c2ccc3oc(N)nc3c2)c2c(N)ncnc21 + CNCc1ccccc1-c1csc(C(C)Nc2nc(C)nc3cc(OC)c(OC)cc23)c1 is 16.6

The recorded viability, T/C for O=C(c1cc(Cc2n[nH]c(=O)c3ccccc23)ccc1F)N1CCN(C(=O)C2CC2)CC1 + C=CC(=O)N1CCN(c2nc(OCC3CCCN3C)nc3c2CCN(c2cccc4cccc(C)c24)C3)CC1CC#N is 33.7

meta.source: PubChem BioAssay AID1963862
